Reference source for all entries: paper PMC6756013

Molecular target: PI3Kα (p110α/p85α) (Homo sapiens, UniProt P42336)
Sequence (P42336 whole entry): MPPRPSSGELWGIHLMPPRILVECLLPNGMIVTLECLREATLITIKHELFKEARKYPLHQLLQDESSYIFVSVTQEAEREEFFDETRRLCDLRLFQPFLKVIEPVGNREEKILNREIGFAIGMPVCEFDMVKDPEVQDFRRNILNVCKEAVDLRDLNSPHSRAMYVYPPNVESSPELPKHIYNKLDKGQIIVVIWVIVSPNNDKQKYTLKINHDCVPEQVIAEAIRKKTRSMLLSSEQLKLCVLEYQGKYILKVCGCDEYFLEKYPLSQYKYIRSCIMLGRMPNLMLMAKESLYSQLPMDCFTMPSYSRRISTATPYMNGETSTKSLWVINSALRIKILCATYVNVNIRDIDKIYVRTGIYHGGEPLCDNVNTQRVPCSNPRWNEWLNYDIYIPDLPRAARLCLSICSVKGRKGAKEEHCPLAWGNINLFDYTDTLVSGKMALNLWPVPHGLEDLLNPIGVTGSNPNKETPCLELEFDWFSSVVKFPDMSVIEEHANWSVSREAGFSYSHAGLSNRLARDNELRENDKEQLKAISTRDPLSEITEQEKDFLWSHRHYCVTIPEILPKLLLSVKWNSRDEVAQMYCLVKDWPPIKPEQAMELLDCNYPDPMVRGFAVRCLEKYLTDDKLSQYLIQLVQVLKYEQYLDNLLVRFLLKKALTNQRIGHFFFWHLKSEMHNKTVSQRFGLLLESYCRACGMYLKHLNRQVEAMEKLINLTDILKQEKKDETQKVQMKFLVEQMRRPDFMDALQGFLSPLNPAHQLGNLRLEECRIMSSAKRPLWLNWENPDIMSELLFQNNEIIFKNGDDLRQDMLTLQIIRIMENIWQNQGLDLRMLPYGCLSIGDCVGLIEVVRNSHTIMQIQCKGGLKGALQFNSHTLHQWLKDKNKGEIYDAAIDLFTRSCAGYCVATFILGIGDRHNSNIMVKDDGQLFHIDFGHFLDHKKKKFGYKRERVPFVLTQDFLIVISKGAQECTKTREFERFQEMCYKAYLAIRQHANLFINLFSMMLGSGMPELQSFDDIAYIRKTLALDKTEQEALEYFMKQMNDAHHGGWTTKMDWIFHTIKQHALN
Sequence (P27986 whole entry partner): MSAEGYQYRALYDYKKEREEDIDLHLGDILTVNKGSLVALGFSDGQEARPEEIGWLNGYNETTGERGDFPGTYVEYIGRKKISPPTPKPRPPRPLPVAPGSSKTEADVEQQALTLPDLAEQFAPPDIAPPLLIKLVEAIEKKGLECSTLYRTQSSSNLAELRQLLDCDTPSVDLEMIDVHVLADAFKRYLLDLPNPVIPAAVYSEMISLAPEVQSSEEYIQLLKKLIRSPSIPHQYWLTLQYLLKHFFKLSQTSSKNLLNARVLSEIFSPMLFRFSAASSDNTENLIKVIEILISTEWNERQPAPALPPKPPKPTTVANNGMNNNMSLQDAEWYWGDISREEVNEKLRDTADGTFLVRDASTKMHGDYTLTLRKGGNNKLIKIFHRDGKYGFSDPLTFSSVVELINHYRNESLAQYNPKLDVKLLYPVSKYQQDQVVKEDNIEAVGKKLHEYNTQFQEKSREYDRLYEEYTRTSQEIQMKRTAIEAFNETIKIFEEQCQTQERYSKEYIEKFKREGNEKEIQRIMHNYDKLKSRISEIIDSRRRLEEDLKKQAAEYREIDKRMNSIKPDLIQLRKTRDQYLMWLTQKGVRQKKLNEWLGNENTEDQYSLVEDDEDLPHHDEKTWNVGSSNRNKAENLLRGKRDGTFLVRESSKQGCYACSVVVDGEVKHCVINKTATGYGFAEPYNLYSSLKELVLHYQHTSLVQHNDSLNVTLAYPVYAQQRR
Assay: In vitro PI3K kinase assay (PI3-Kinase Activity ELISA)
Conditions: incubated 30 min at room temperature
Procedure: Purified PI3K Class I Lipid Kinase, including p110α/p85α, p110β/p85α, p110γ, and p110δ/p85α (Promega, Madison, WI, USA), was respectively incubated with B591 for 30 min at room temperature. The activity of PI3K was evaluated using a PI3-Kinase Activity ELISA kit (K-1000s, Echelon, Salt Lake City, UT, USA) according to the manufacture’s instructions. […] The absorbance was measured at 450 nm with a Multilabel Reader (PerkinElmer, Waltham, MA, USA). […]
readoutType: IC50 (µM)
Please state the figure in µM; there is no need to write the unit.

Req: I am curious: what IC50 value has been reported for Cc1cc2c(cc1C)[n+](Cc1ccccc1Br)cn2Cc1ccc2c(c1)CCO2.[Br-] [B591] ?
Resp: 1.3
